Target: CRAF (Homo sapiens, UniProt P04049)
Sequence (P04049 whole entry): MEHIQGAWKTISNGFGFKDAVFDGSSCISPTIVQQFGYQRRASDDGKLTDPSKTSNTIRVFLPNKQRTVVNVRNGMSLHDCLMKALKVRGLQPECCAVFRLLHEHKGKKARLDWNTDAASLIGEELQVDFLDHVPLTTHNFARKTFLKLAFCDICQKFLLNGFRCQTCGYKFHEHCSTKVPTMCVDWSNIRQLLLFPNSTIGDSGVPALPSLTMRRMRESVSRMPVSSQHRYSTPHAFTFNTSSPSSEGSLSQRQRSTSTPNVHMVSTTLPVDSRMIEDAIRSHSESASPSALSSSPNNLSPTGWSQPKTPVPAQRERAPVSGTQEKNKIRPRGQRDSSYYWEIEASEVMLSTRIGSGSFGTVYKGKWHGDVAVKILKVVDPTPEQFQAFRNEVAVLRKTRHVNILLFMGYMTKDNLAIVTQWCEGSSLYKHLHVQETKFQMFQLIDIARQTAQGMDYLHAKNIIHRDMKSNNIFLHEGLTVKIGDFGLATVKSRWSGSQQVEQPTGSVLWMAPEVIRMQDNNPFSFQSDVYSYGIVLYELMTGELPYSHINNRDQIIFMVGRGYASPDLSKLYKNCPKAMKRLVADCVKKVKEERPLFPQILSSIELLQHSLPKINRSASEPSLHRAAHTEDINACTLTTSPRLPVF
Experiment: Kinase inhibition assay CRAF (similar protocol)
Assay type: biochemical
Property: IC50 (nM)

CCCS(=O)(=O)Nc1ccc(F)c(-n2cc(-c3cncnc3)c3nc(N(C)C4CCN(C(=O)CCOCCOCCOCCNc5cccc6c5C(=O)N(C5CCC(=O)NC5=O)C6=O)CC4)ccc32)c1F (stereo not drawn) [Entry 2]: 22

[a] CCCS(=O)(=O)Nc1ccc(F)c(-n2cc(-c3cncnc3)c3nc(N(C)C4CCN(C(=O)CCC(=O)NCCCOCCOCCOCCCNc5cccc6c5C(=O)N(C5CCC(=O)NC5=O)C6=O)CC4)ccc32)c1F (stereo not drawn) [Entry 21]
[b] CCCS(=O)(=O)Nc1ccc(F)c(-n2cc(-c3cncnc3)c3nc(N(C)C4CCN(C(=O)CCOCCOCCOCCOCCOCCNc5cccc6c5C(=O)N(C5CCC(=O)NC5=O)C6=O)CC4)ccc32)c1F (stereo not drawn) [Entry 18]
Input line: // task: argmin of IC50 over [ a , b ] Mark your selection by writing its label.
Output line: b
(b: 223 nM, a: 468 nM)

---

Molecular target: BRAF^V600E (Homo sapiens, UniProt P15056, V600E)
Construct: A375 or SK-Mel-28 cells were obtained from ATCC; host or cells: A375 or SK-Mel-28
Sequence (P15056 whole entry V600E): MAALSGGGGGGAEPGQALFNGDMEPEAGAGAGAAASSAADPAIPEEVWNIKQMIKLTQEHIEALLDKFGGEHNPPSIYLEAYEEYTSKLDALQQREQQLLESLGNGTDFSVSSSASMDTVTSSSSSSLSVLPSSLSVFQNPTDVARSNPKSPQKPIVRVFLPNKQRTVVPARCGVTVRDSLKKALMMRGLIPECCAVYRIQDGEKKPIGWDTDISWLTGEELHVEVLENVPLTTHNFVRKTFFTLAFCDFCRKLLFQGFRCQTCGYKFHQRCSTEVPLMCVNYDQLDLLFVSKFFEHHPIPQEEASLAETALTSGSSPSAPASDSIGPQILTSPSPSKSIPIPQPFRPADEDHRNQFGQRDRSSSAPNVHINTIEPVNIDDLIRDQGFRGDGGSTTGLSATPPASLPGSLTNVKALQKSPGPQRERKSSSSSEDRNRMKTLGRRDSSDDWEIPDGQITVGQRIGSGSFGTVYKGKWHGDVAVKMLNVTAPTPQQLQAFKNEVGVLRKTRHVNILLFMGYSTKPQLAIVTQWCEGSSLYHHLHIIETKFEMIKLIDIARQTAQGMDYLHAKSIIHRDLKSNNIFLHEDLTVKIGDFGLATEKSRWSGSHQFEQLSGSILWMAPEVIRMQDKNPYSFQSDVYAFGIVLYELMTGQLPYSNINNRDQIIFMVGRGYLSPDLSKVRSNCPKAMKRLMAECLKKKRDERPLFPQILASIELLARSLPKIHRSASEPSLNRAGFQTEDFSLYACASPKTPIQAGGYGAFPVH
Assay: Cellular degradation assay, Western blot of BRAF^V600E
Assay type: cell-based
Details: Table 1; cells treated 24 hours, Western blot; read-out: DC50(nM) BRAF^V600E
Property: DC50 (nM)

[A] CCCS(=O)(=O)Nc1ccc(F)c(-n2cc(-c3cncnc3)c3nc(N(C)C4CCN(C(=O)CCOCCOCCOCCNc5cccc6c5C(=O)N(C5CCC(=O)NC5=O)C6=O)CC4)ccc32)c1F (stereo not drawn) [Entry 16]
[B] CCCS(=O)(=O)Nc1ccc(F)c(-n2cc(-c3cncnc3)c3nc(N(C)C4CCN(C(=O)CCC(=O)NCCCOCCOCCOCCCNc5cccc6c5C(=O)N(C5CCC(=O)NC5=O)C6=O)CC4)ccc32)c1F (stereo not drawn) [Entry 21]
[C] CCCS(=O)(=O)Nc1ccc(F)c(-n2cc(-c3cncnc3)c3nc(N(C)C4CCN(C(=O)CCOCCOCCOCCOCCOCCOCCNc5cccc6c5C(=O)N(C5CCC(=O)NC5=O)C6=O)CC4)ccc32)c1F (stereo not drawn) [Entry 19]
Input line: Please sort the molecules listed above from highest to lowest DC50. // ordering of labels required in reply
Output line: C, B, A

---

Biological target: ARAF (Homo sapiens)
Sequence (P10398 1-606): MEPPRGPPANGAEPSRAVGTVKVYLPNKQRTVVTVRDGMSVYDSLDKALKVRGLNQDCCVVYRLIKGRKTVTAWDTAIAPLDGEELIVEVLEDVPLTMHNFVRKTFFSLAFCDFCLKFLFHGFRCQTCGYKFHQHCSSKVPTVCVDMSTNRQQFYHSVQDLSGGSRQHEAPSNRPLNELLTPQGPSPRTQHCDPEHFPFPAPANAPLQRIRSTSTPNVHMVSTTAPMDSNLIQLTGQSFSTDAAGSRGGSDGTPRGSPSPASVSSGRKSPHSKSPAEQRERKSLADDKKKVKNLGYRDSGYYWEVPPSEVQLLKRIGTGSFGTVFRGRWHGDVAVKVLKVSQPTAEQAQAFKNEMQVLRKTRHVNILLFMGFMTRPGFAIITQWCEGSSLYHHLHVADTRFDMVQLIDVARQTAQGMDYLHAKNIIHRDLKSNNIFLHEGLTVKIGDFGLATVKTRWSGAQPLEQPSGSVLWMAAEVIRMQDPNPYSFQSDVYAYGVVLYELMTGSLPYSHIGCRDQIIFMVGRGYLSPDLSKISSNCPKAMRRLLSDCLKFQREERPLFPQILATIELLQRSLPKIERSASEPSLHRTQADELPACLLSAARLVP
Assay: Kinase inhibition assay ARAF (similar protocol)
Assay type: biochemical
Property: IC50 (nM)

CCCS(=O)(=O)Nc1ccc(F)c(-n2cc(-c3cncnc3)c3nc(N(C)C4CCN(C(=O)CCOCCOCCOCCOCCOCCOCCOCCOCCNc5cccc6c5C(=O)N(C5CCC(=O)NC5=O)C6=O)CC4)ccc32)c1F (centres unmarked) [Entry 20]: 4910
CCCS(=O)(=O)Nc1ccc(F)c(-n2cc(-c3cncnc3)c3nc(N(C)C4CCN(C(=O)CCOCCOCCOCCOCCOCCNc5cccc6c5C(=O)N(C5CCC(=O)NC5=O)C6=O)CC4)ccc32)c1F (centres unmarked) [Entry 18]: 3620
CCCS(=O)(=O)Nc1ccc(F)c(-n2cc(-c3cncnc3)c3nc(N(C)C4CCN(CC)CC4)ccc32)c1F [Entry 15, reference compound]: 323

[a] CCCS(=O)(=O)Nc1ccc(F)c(-n2cc(-c3cncnc3)c3nc(N(C)C4CCN(C(=O)CCOCCOCCOCCOCCOCCOCCNc5cccc6c5C(=O)N(C5CCC(=O)NC5=O)C6=O)CC4)ccc32)c1F (centres unmarked) [Entry 19]
[b] CCCS(=O)(=O)Nc1ccc(F)c(-n2cc(-c3cncnc3)c3nc(N(C)C4CCN(C(=O)CCC(=O)NCCCOCCOCCOCCCNc5cccc6c5C(=O)N(C5CCC(=O)NC5=O)C6=O)CC4)ccc32)c1F (centres unmarked) [Entry 21]
[c] CCCS(=O)(=O)Nc1ccc(F)c(-n2cc(-c3cncnc3)c3nc(N(C)C4CCN(C(=O)CCOCCOCCOCCOCCNc5cccc6c5C(=O)N(C5CCC(=O)NC5=O)C6=O)CC4)ccc32)c1F (centres unmarked) [Entry 17]
Input line: Place the items in sequence of falling IC50. // ordering of labels required in reply
Output line: a, b, c
